Tested on: HepG2
protocolDescription: cytotoxicity call (relative viability < 0.9)
experimentalConditions: 10 µM
The campaign covered roughly 39,000 compounds. About 3,300 (8.5%) were called active. This is one part of a sample in which actives are shown more often than they occur.
Possible outcomes: active, inactive

* C[C@@H]1CCCCO[C@H](CN(C)Cc2ccc(Cl)c(Cl)c2)[C@@H](C)CN([C@H](C)CO)C(=O)c2cc(NC(=O)CCC(F)(F)F)ccc2O1 | inactive
* C[C@@H]1CCCCO[C@@H](CN(C)Cc2ccc(Cl)c(Cl)c2)[C@@H](C)CN([C@H](C)CO)C(=O)c2cc(NC(=O)CCCN(C)C)ccc2O1 | active
* CCn1c(=O)cc(N2CCC(C)CC2)[nH]c1=O | inactive
* C[C@@H]1CCCCO[C@@H](CN(C)Cc2ccc(Cl)c(Cl)c2)[C@H](C)CN([C@@H](C)CO)C(=O)c2cc(NC(=O)CCC(F)(F)F)ccc2O1 | inactive
* COc1ccc(S(=O)(=O)Nc2ccc3c(c2)C(=O)N([C@H](C)CO)C[C@@H](C)[C@@H](CN(C)C(=O)CCC(F)(F)F)OCCCC[C@H](C)O3)cc1 | inactive
* COc1ccc(S(=O)(=O)N(C)C[C@@H]2Oc3ccc(N(C)C)cc3C(=O)N([C@H](C)CO)C[C@H]2C)cc1 | inactive
* COC(=O)[C@H]1C2C(=O)N(C3CC3)C[C@]23C=C[C@H]1O3 (some centres undefined) | inactive
* C[C@@H]1CCCCO[C@H](CN(C)S(=O)(=O)c2ccccc2)[C@@H](C)CN([C@H](C)CO)C(=O)c2cc(NC(=O)Nc3ccccc3)ccc2O1 | inactive
* CC(C)NC(=O)Nc1ccc2c(c1)CC(=O)N([C@H](C)CO)C[C@H](C)[C@H](CN(C)S(=O)(=O)c1ccccc1)O2 | inactive
* C[C@H](CO)N1C[C@H](C)[C@H](CN(C)S(=O)(=O)c2ccccc2F)Oc2ncc(C#Cc3cccnc3)cc2C1=O | inactive
* C[C@@H]1CCCCO[C@@H](CN(C)Cc2ccc(Cl)c(Cl)c2)[C@@H](C)CN([C@@H](C)CO)C(=O)c2cc(NC(=O)CCC(F)(F)F)ccc2O1 | active
* C[C@@H]1CCCCO[C@H](CN(C)Cc2ccc(Cl)c(Cl)c2)[C@@H](C)CN([C@@H](C)CO)C(=O)c2cc(NC(=O)CCC(F)(F)F)ccc2O1 | inactive
* COCC#Cc1ccc([C@@H]2[C@@H](CO)N3C(=O)CN(C(=O)C4CCOCC4)C[C@@H]23)cc1 | inactive
* C[C@H]1CCCCO[C@H](CN(C)Cc2ccc(Cl)c(Cl)c2)[C@@H](C)CN([C@@H](C)CO)C(=O)c2cc(NC(=O)CCC(F)(F)F)ccc2O1 | inactive

====

System: HepG2
protocolDescription: cytotoxicity call (relative viability < 0.9)
experimentalConditions: 10 µM
About 3,300 (8.5%) of roughly 39,000 compounds were called active. Shown is part of a subset that was picked to be rich in actives.
Possible outcomes: active, inactive

- C[C@@H]1CCCCO[C@H](CN(C)C(=O)Nc2cccc3ccccc23)[C@@H](C)CN([C@H](C)CO)C(=O)c2cc(NS(=O)(=O)c3ccc(F)cc3)ccc2O1: active
- CC(C)NC(=O)Nc1ccc2c(c1)CC(=O)N([C@H](C)CO)C[C@@H](C)[C@@H](CN(C)Cc1ccc3c(c1)OCO3)O2: inactive
- CNC[C@@H]1OCCCC[C@@H](C)Oc2ccc(NS(=O)(=O)c3cn(C)cn3)cc2C(=O)N([C@H](C)CO)C[C@@H]1C: inactive
- COCOc1ccc2cc(Br)ccc2c1-c1c(OCOC)ccc2cc(Br)ccc12: active
- CC(=O)N[C@H]1[C@H](O[C@H]2CC[C@]3(C)[C@H]4CC=C5[C@@H]6CC(C)(C)CC[C@]6(C(=O)O[C@H]6OC[C@@H](O)[C@@H](O)[C@@H]6O)[C@@H](O)C[C@@]5(C)[C@]4(C)CC[C@H]3C2(C)C)O[C@H](CO[C@H]2OC[C@@H](O)[C@@H](O[C@H]3OC[C@@H](O)[C@@H](O)[C@@H]3O)[C@@H]2O)[C@@H](O[C@@H]2O[C@@H](C)[C@H](O)[C@@H](O)[C@H]2O[C@@H]2O[C@@H](C)[C@H](O)[C@@H](O)[C@H]2O)[C@@H]1O: active
- C[C@H](CO)N1C[C@H](C)[C@@H](CN(C)C(=O)Nc2cccc3ccccc23)OCCCC[C@H](C)Oc2ccc(NS(=O)(=O)c3ccc(F)cc3)cc2C1=O: inactive
- C[C@@H]1CCCCO[C@@H](CN(C)C(=O)Nc2cccc3ccccc23)[C@H](C)CN([C@H](C)CO)C(=O)c2cc(NS(=O)(=O)c3ccc(F)cc3)ccc2O1: active
- C[C@@H]1CCCCO[C@H](CN(C)C(=O)Nc2cccc3ccccc23)[C@H](C)CN([C@@H](C)CO)C(=O)c2cc(NS(=O)(=O)c3ccc(F)cc3)ccc2O1: active
- CCCC(=O)Nc1ccc2c(c1)C(=O)N(C)C[C@H](OC)[C@H](C)CN(Cc1ccc(-c3ccccn3)cc1)[C@@H](C)CO2: inactive
- C[C@@H]1CCCCO[C@@H](CN(C)C(=O)c2ccccc2)[C@H](C)CN([C@H](C)CO)C(=O)c2cc(NC(=O)Nc3ccc(F)cc3)ccc2O1: inactive
- COc1ccc(S(=O)(=O)Nc2ccc3c(c2)C(=O)N([C@H](C)CO)C[C@@H](C)[C@H](CN(C)C(=O)NC(C)C)O3)cc1: inactive
- C[C@@H]1CN([C@@H](C)CO)C(=O)c2cc(NS(=O)(=O)c3ccc(F)cc3)ccc2O[C@@H](C)CCCCO[C@H]1CN(C)C(=O)Nc1cccc2ccccc12: inactive
- COc1cc(/C=C/C(=O)O[C@H]2CC[C@]34C[C@]35CC[C@]3(C)[C@@H]([C@@H](C)CCC=C(C)C)CC[C@@]3(C)[C@@H]5CC[C@@H]4C2(C)C)ccc1O: inactive

====

System: HepG2
protocolDescription: cytotoxicity call (relative viability < 0.9)
experimentalConditions: 10 µM
The campaign covered roughly 39,000 compounds. About 3,300 (8.5%) were called active. This is one part of a sample in which actives are shown more often than they occur.
Possible outcomes: True (active), False (inactive)

* C[C@H](CO)N1C[C@H](C)[C@H](CN(C)Cc2ccc(C(F)(F)F)cc2)Oc2ccc(NC(=O)Nc3ccc4c(c3)OCO4)cc2C1=O | False
* C[C@H](CO)N1C[C@H](C)[C@@H](CN(C)Cc2ccc3c(c2)OCO3)Oc2ccc(NC(=O)Nc3ccc(C(F)(F)F)cc3)cc2C1=O | True
* C[C@@H]1CN([C@@H](C)CO)C(=O)c2cc(NC(=O)Nc3ccc4c(c3)OCO4)ccc2O[C@@H]1CN(C)Cc1ccc(C(F)(F)F)cc1 | False
* C[C@@H]1CN([C@@H](C)CO)C(=O)c2cc(NC(=O)Nc3ccc(C(F)(F)F)cc3)ccc2O[C@H]1CN(C)Cc1ccc2c(c1)OCO2 | True

====

System: HepG2
protocolDescription: cytotoxicity call (relative viability < 0.9)
experimentalConditions: 10 µM
Out of some 39,000 compounds screened, about 3,300 (8.5%) were called active. The full list was thinned out, with actives kept by preference.
Possible outcomes: T (active), F (inactive)

- C[C@@H]1CN([C@H](C)CO)C(=O)c2cc(C#Cc3cccc(F)c3)cnc2O[C@@H]1CN(C)CC1CCOCC1: F
- C[C@H](O)C#Cc1ccc2c(c1)O[C@H](CN(C)C(=O)Cc1ccccn1)[C@@H](C)CN([C@H](C)CO)S2(=O)=O: F
- CC[C@@H](O)C[C@H]1CC[C@H]([C@@H](C)C(=O)O[C@@H](C)C[C@H]2CC[C@H]([C@@H](C)C(=O)O[C@@H](C)C[C@H]3CC[C@H]([C@@H](C)C(=O)O[C@@H](C)C[C@H]4CC[C@H]([C@@H](C)C(=O)O)O4)O3)O2)O1: T

====

System: HepG2
protocolDescription: cytotoxicity call (relative viability < 0.9)
experimentalConditions: 10 µM
Hit rate of the full screen: of about 39,000 compounds, about 3,300 (8.5%) were called active. The entries come from a sample that favours actives as a whole.
parameter: cytotoxicity call

- C[C@H]1CCCCO[C@H](CN(C)Cc2ccc3c(c2)OCO3)[C@@H](C)CN([C@@H](C)CO)C(=O)c2cc(NC(=O)Nc3ccc4c(c3)OCO4)ccc2O1: inactive
- C[C@@H]1CCCCO[C@@H](CN(C)Cc2ccc3c(c2)OCO3)[C@H](C)CN([C@@H](C)CO)C(=O)c2cc(NC(=O)Nc3ccc4c(c3)OCO4)ccc2O1: inactive
- C[C@H]1CCCCO[C@@H](CN(C)Cc2ccc3c(c2)OCO3)[C@@H](C)CN([C@@H](C)CO)C(=O)c2cc(NC(=O)Nc3ccc4c(c3)OCO4)ccc2O1: inactive
- C[C@@H]1CCCCO[C@@H](CN(C)Cc2ccc3c(c2)OCO3)[C@H](C)CN([C@H](C)CO)C(=O)c2cc(NC(=O)Nc3ccc4c(c3)OCO4)ccc2O1: active
- C[C@@H]1CCCCO[C@@H](CN(C)Cc2ccc3c(c2)OCO3)[C@@H](C)CN([C@@H](C)CO)C(=O)c2cc(NC(=O)Nc3ccc4c(c3)OCO4)ccc2O1: active
- CC(C)NC(=O)Nc1cccc2c1O[C@H](CN(C)Cc1ccc(Oc3ccccc3)cc1)[C@@H](C)CN([C@H](C)CO)C2=O: inactive
